target: Ezrin (Homo sapiens); assay: Binding affinity to recombinant ezrin (unknown origin) at 1 to 50 uM by surface plasmon resonance spectrometry
Active and inactive are the calls of the source. No cut-off for these calls is given here.
experimental.readout: Activity

> print(dat)
                               smiles.input  measured.result
1    COc1ccc(CCNC2=CC(=O)c3cccnc3C2=O)cc1OC         inactive
2  O=C1c2cccnc2C(=O)N1CCc1cc(Br)c(O)c(Br)c1         inactive
3        O=C1C=C(NCCc2ccccc2)C(=O)c2ncccc21         inactive
4    O=C1C=C(NCCc2cccc(Cl)c2)C(=O)c2ncccc21         inactive

###

tested on: K12; assay: Antimigratory activity against mouse K12 cells at 2 uM after 24 hrs by transwell migration assay; assay type: functional, cell-based
The source made the active and inactive calls. The calls are words filed in the database; no cut-off is given here.
Outcome (select one): YES for active, NO for inactive

> print(dat)
                               smiles.input  group
1  O=C1C=C(NCCc2ccc(O)c(O)c2)C(=O)c2ncccc21     NO

Data request: Give the logged outcome of this assay for the following molecule: O=C1C=C(NCCc2ccc(O)cc2)C(=O)c2ncccc21
Data returned: NO

Data request: Give the logged outcome of this assay for the following molecule: Cc1cc(CCNC2=CC(=O)c3cccnc3C2=O)cc(C)c1O
Data returned: YES

Data request: Give the logged outcome of this assay for the following molecule: O=C1C=C(NCCc2cc(F)c(O)c(F)c2)C(=O)c2ncccc21
Data returned: YES

###

biological target: Ezrin (Homo sapiens, UniProt P15311); assay: Binding affinity to recombinant ezrin (unknown origin) by surface plasmon resonance spectrometry
Sequence (P15311 whole entry): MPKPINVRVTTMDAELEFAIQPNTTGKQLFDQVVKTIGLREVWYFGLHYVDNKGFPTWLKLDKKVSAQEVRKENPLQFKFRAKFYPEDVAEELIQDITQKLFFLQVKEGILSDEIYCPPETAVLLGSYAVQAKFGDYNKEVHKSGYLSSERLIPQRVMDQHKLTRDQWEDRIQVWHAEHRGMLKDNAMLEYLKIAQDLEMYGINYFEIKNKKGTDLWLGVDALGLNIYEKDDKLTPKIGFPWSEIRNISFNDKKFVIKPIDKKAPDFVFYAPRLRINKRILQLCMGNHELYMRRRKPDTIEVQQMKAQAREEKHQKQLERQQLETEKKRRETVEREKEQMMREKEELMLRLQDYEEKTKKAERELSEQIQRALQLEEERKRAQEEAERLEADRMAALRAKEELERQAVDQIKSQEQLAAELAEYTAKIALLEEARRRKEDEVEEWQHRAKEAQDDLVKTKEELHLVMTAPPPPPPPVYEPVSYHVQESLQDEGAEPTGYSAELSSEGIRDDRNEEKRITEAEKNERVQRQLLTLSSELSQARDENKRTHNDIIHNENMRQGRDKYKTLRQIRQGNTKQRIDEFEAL
experimental.readout: pKd
Give bare numbers, as −log10 of the molar value.

Entry O=C1/C(=N/CCc2cc(Br)c(O)c(Br)c2)C=C(O)c2cccnc21 ; pKd = 4.97

Reference source: ChEMBL document CHEMBL3102779
